System: COLO 205 colon
Experiment: NCI-60 one-dose screen, 48 h
Conditions: 10 µM unless noted
Method: Cells are grown in 96 well plates and exposed to the test compound for 48 hours. Compounds are tested at a single concentration, which is 10^-5 M for most compounds. The reported endpoint is percent growth (GI% or GIPRCNT), where numbers from 0 - 100% represent growth inhibition, and numbers from -100% - 0 represent cell death. For example, a value of 40 represents 60% growth inhibition. A value of 0 means no net growth occurred over the course of the experiment. […]
This is part of a sample that, as a whole, favours compounds with a hit. Of some 83,000 tested, about 20% had one in any assay. The source made the active and inactive calls. Rule for the calls: active = growth percent below 10; inactive = the rest.
Select the correct class. Options are YES (active), NO (inactive) and nothing else.

Solved cases below.
>  <molecule>
CC(=O)Nc1c(Br)cc2c(c1Br)Cc1cc(Br)ccc1-2

>  <assigned-category>
NO

$$$$
>  <molecule>
Cc1ccc(C(CN(C)C)C(=O)c2ccccc2)cc1 (stereo unspecified)

>  <assigned-category>
NO

$$$$
>  <molecule>
CCCCCCCCCCCCCC

>  <assigned-category>
NO

$$$$

## Task Please let me know the test result on file for CCN1C(=O)N(CC)C2C1NN=c1s/c(=C\c3ccc(Br)cc3)c(=O)n12 (stereo unspecified) .
## Result YES

## Task Please let me know the test result on file for COc1ccc(C2NC(=O)c3cc4c(cc3N2)OCO4)cc1 (stereo unspecified) .
## Result YES

## Task Please let me know the test result on file for c1cc2c(cc1-c1cnc3nonc3n1)OCO2 .
## Result NO

---

Tested on: OVCAR-8 ovarian
Assay: NCI-60 one-dose screen, 48 h (100 = growth as untreated, 0 = no growth, -100 = all killed)
Conditions: 10 µM unless noted
Compounds without any hit were thinned out: in the full panel of roughly 83,000, 20% have a hit.
measure: growth (%)
Quick note: give the figure in %, leave out the unit.

Observe how each entry below is paired with its result.
>  <chemical-string>
O=C1Nc2ccc(Cl)cc2/C1=C\c1c(-c2ccc(F)cc2)nc2ccccn12

>  <measured-on>
OVCAR-8 ovarian

>  <growth (%)>
22

$$$$
>  <chemical-string>
CCC(=O)OCc1ccc(OC)cc1

>  <measured-on>
OVCAR-8 ovarian

>  <growth (%)>
102

$$$$
>  <chemical-string>
CNCCCn1c2c(c3ccc(Cl)cc3c1=O)C(=O)c1cc(OC)cnc1-2

>  <measured-on>
OVCAR-8 ovarian

>  <growth (%)>
40.8

$$$$
>  <chemical-string>
CN(C)c1nc(-c2cccs2)n2nc(-c3ccco3)cc2n1

>  <measured-on>
OVCAR-8 ovarian

>  <growth (%)>
96

$$$$
>  <chemical-string>
CCCCCCCOc1cccc(/C=C2\N=C3SCCCN3C2=O)c1

>  <measured-on>
OVCAR-8 ovarian

>  <growth (%)>
102

$$$$

# molecule ClCc1c(Cl)c(Cl)c(Cl)c(CCl)c1Cl ; its growth = 49.5

---

Tested on: SR leukemia
Assay: NCI-60 one-dose screen, 48 h (100 = growth as untreated, 0 = no growth, -100 = all killed)
Details: 10 µM unless noted
This is part of a sample that, as a whole, favours compounds with a hit. Of some 83,000 tested, about 20% had one in any assay.
Classify by measured growth: Criterion met if it is equal to or exceeds 80%, Criterion not met if it is smaller.

Solved cases below.
>  <compound>
CCN(CC)c1ccc(/C=N/NC(=O)c2ccc(S(C)(=O)=O)cc2)c(O)c1

>  <assigned-category>
Criterion not met

$$$$
>  <compound>
CCCCOc1nc2ccc(C)cc2cc1/C=C/C(=O)/C=C(O)/C=C/c1cc2cc(C)ccc2nc1OCCCC

>  <assigned-category>
Criterion met

$$$$
>  <compound>
O=C1OC(/C=C/c2ccccc2)=NC/1=C/c1ccccc1[N+](=O)[O-]

>  <assigned-category>
Criterion met

$$$$
>  <compound>
CCc1c(C)c2ccc(O)c(-c3cc(-c4ccccc4)c(C#N)c(=O)[nH]3)c2oc1=O

>  <assigned-category>
Criterion met

$$$$

## Task Would you say Nc1nc(N)c2cc(NCc3ccc(Cl)c(Cl)c3)ccc2n1 shows growth at minimum 80%?
## Result Criterion not met

## Task Would you say COc1ccc2[nH]cc(C3(c4c[nH]c5ccc(OC)cc45)C(=O)Nc4ccc(F)cc43)c2c1 shows growth at minimum 80%?
## Result Criterion not met

## Task Would you say CCN(CC)CCCC(C)Nc1ccnc2ccc(Oc3ccccc3)cc12 (centres undefined) shows growth at minimum 80%?
## Result Criterion not met

## Task Would you say CC(=O)NC1C(O[C@H]2C[C@H]3[C@@H]4CC=C5C[C@@H](O)CC[C@]5(C)[C@H]4CC[C@]3(C)[C@H]2[C@H](C)C(=O)CCC(C)C)OCC(O)C1O (some centres undefined) shows growth at minimum 80%?
## Result Criterion not met
